Target: T45G yeast alcohol dehydrogenase (ADH1) (Saccharomyces cerevisiae, UniProt P00330, T46G)
Sequence (P00330 2-348 T46G): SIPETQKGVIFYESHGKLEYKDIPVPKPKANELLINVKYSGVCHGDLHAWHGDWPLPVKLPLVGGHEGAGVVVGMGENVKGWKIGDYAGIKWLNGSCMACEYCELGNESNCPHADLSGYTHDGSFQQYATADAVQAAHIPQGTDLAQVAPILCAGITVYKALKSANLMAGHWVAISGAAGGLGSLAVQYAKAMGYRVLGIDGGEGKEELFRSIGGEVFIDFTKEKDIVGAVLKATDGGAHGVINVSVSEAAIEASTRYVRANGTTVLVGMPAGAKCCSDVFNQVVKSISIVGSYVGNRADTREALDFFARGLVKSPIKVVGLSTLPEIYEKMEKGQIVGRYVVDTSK
Conditions: read-out: Kia, NAD+; pH 9.00, 30 °C
observed-property: Ki (µM)
Give the value, in units of µM, as a plain number.

// `NC(=O)c1ccc[n+]([C@@H]2O[C@H](COP(=O)([O-])OP(=O)(O)OC[C@H]3O[C@@H](n4cnc5c(N)ncnc54)[C@H](O)[C@@H]3O)[C@@H](O)[C@H]2O)c1` : Ki value = 1470

====

Target: T45G yeast alcohol dehydrogenase (ADH1) (Saccharomyces cerevisiae, UniProt P00330, T46G)
Conditions: read-out: Kiq, NADH; pH 8.08, 30 °C
observed-property: pKi
Convention used: pKi is expressed as -log10 of the molar concentration.

Looking up `NC(=O)C1=CN([C@@H]2O[C@H](COP(=O)(O)OP(=O)(O)OC[C@H]3O[C@@H](n4cnc5c(N)ncnc54)[C@H](O)[C@@H]3O)[C@@H](O)[C@H]2O)C=CC1` , I see its pKi listed as 3.54

====

Target: T45G yeast alcohol dehydrogenase (ADH1) (Saccharomyces cerevisiae, UniProt P00330, T46G)
Conditions: read-out: Kia, NAD+; pH 7.00, 30 °C
observed-property: pKi
In textbook form, pKi equals minus log to base ten of the concentration in mol/L.

Form: compound = NC(=O)c1ccc[n+]([C@@H]2O[C@H](COP(=O)([O-])OP(=O)(O)OC[C@H]3O[C@@H](n4cnc5c(N)ncnc54)[C@H](O)[C@@H]3O)[C@@H](O)[C@H]2O)c1 [NAD^+] ; pKi = 3.06

====

Target: T45G yeast alcohol dehydrogenase (ADH1) (Saccharomyces cerevisiae, UniProt P00330, T46G)
Conditions: read-out: Kiq, NADH; pH 7.65, 30 °C
observed-property: pKi
The read-out pKi is expressed as -log10 of concentration in moles per litre.

Short answer for `NC(=O)C1=CN([C@@H]2O[C@H](COP(=O)(O)OP(=O)(O)OC[C@H]3O[C@@H](n4cnc5c(N)ncnc54)[C@H](O)[C@@H]3O)[C@@H](O)[C@H]2O)C=CC1` : pKi was 3.81
